Target: HRH2 (Homo sapiens, UniProt P25021)
Sequence (P25021 whole entry): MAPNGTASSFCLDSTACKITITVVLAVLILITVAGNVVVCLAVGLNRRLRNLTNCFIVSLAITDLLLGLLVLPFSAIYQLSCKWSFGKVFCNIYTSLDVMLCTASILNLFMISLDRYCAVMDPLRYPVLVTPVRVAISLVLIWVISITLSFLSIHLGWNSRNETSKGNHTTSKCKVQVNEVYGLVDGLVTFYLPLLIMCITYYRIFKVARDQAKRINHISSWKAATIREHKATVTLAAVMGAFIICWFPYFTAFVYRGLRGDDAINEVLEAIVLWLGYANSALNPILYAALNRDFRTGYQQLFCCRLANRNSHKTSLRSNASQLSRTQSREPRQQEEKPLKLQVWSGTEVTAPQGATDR
Assay: Safetyscan cAMP
Details: agonist mode, read-out: RC50 (EC50) HRH2 Agonist
Property label: EC50

EC50 lookup needed for `Cc1c(C#N)cccc1[C@@H](C)Nc1nnc(C)c2cnc(N3CCOCC3)cc12` , thanks.
> 10 µM

---

Target: GR (Homo sapiens, UniProt P04150)
Sequence (P04150 whole entry): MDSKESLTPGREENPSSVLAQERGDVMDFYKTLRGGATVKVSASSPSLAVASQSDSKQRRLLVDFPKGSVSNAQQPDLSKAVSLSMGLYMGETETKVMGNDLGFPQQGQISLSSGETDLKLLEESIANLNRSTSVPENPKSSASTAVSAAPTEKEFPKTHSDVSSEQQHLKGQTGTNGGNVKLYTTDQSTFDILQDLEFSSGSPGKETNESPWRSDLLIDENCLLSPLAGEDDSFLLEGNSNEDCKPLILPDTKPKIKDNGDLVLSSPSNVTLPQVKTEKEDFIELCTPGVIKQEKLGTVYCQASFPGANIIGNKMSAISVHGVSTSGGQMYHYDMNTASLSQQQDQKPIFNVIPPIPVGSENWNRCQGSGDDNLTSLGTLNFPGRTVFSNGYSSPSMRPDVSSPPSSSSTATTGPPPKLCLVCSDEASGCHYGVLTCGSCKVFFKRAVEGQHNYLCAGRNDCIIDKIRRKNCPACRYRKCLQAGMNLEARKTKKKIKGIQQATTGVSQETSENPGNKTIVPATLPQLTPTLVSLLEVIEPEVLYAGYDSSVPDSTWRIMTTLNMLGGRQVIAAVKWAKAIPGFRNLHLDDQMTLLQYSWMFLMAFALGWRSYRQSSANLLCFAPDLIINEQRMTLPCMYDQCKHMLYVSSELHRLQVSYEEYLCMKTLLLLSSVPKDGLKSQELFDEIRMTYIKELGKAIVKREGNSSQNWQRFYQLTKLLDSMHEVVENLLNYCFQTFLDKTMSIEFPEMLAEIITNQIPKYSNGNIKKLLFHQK
Assay: Safetyscan NHR Protein Interaction
Settings: antagonist mode, read-out: RC50 (IC50) GR Antagonist
Property label: IC50

IC50 lookup needed for Cc1c(C#N)cccc1[C@@H](C)Nc1nnc(C)c2cnc(N3CCOCC3)cc12 [Compound 32] , thanks.
> 10 µM

---

Biological target: ADORA2A (Homo sapiens)
Sequence (P29274 whole entry): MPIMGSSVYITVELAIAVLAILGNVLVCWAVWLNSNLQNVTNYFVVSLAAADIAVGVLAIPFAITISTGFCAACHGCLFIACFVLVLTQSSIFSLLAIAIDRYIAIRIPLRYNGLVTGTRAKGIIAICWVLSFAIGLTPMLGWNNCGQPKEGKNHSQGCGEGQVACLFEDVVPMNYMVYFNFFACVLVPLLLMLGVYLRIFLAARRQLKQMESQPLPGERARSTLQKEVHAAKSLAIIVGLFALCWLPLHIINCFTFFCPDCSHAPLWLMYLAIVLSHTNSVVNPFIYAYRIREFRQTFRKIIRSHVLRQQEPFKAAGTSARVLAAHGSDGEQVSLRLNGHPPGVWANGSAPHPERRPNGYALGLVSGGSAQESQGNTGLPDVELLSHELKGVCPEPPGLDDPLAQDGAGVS
Assay: Safetyscan Calcium Flux
Conditions: agonist mode, read-out: RC50 (EC50) ADORA2A Agonist
pEC50: −log10 of the molar value.
Property label: pEC50

pEC50 lookup needed for `Cc1c(C#N)cccc1[C@@H](C)Nc1nnc(C)c2cnc(N3CCOCC3)cc12` , thanks.
< 5.00
